assayed-system: Proteinase-activated receptor 4 (Homo sapiens, UniProt Q96RI0)
Sequence (Q96RI0 whole entry): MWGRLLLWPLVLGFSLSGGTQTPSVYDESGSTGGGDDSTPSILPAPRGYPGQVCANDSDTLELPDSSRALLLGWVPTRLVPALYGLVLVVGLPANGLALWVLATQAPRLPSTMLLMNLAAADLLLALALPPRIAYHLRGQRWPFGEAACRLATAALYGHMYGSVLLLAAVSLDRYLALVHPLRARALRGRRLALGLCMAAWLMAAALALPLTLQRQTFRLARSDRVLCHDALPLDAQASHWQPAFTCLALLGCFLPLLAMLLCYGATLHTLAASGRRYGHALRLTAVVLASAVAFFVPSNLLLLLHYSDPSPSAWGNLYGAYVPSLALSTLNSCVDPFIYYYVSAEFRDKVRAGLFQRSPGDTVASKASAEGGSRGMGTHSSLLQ
test: Antagonist activity against human PAR4 expressed in HEK293 cells assessed as reduction in H-Ala-Phe(4-F)-Pro-Gly-Trp-Leu-Val-Lys-Asn-Gly-NH2-induced intracellular calcium mobilization incubated for 30 mins before agonist addition by FLIPR assay
measurement-kind: pIC50
Lab note — pIC50 values are minus log10 of concentrations in M.

molecule	reported-result
CSc1nn2cc(-c3cc4c(C(F)(F)F)cc(C)nc4o3)nc2s1	8.09
COc1nn2cc(-c3cc4ccc([N+](=O)[O-])cc4o3)nc2s1	7.42
COc1cccc2oc(-c3cn4nc(SC)sc4n3)cc12	7.96

Please look at the following compound next.
// sample COc1cc(OCc2cccc(OCc3ccc(OC)c(C)c3C)c2)c2cc(-c3cn4nc(OC)sc4n3)oc2c1 , its pIC50 was 8.26
